Species on record: Rattus norvegicus
procedure.summary: Evaluated for intrinsic GH secretory potency as half maximal release of GH in the rat pituitary cell assay.
Type: functional
assay.conditions: Pituitary gland cell
pEC50: −log10 of the molar value.
measurement.type: pEC50

Query string: Give the reported value of pEC50 for this record: CC1(C)C2CCC1(CS(=O)(=O)N1CCC3(CCc4ccccc43)CC1)C(NC(=O)C1CN3CCC1CC3)C2 (stereo not given)
Result string: < 5.00

Query string: Give the reported value of pEC50 for this record: Cc1ccccc1N1CCN(S(=O)(=O)CC23CCC(CC2NC(=O)[C@H]2CCCNC2)C3(C)C)CC1 (stereo not given in full)
Result string: < 5.30

Query string: Give the reported value of pEC50 for this record: CC1(C)C2CCC1(CS(=O)(=O)N1CCC3(CCc4ccccc43)CC1)C(NC(=O)[C@H]1CCCNC1)C2 (stereo not given in full)
Result string: < 6.00

Query string: Give the reported value of pEC50 for this record: CC(C)(C)OC(=O)N1CCCC(C(=O)NC2CC3CCC2(CS(=O)(=O)N2CCC4(CCc5ccccc54)CC2)C3(C)C)C1 (stereo not given)
Result string: < 4.60

Query string: Give the reported value of pEC50 for this record: Cc1ccccc1N1CCN(S(=O)(=O)CC23CCC(CC2NC(=O)CC(C)(C)N)C3(C)C)CC1 (stereo not given)
Result string: < 5.00
